Form field: melting point (one value per entry).

O=C(Cl)c1ccc2c(c1)C(C(F)(F)F)(C(F)(F)F)c1cc(C(=O)Cl)ccc1O2 = 216 to 218 °C

Fill blank: measured melting point of the compound O=C(O)CC1CCC2(CC1)OCCO2 is ____. 110 to 113 °C

Fill blank: measured melting point of the compound Cc1cc(C)c(C=O)c(-c2ccc(Cl)c(Cl)c2)c1 is ____. 80 to 81 °C

Fill blank: measured melting point of the compound Cc1cc(NC(=O)COc2ccccc2)cc(C)c1S(=O)(=O)C[N+](=O)[O-] is ____. 166 to 167 °C

Fill blank: measured melting point of the compound O=C(c1cccs1)c1cccc2cc[nH]c12 is ____. 129 to 130 °C

Fill blank: measured melting point of the compound COc1cc(Cc2cnc(N)nc2N)cc(-c2ccc(N(C)C)cc2)c1OC is ____. 230 °C

Fill blank: measured melting point of the compound OC(CON=C1CCCc2sccc21)CN1CCCC1 (stereo not given) is ____. 136 °C

Fill blank: measured melting point of the compound CC(C)(C)C(=O)C(CC(=O)c1ccc(Cl)cc1)n1cncn1 (stereo not given) is ____. 116 to 119 °C

Fill blank: measured melting point of the compound CCCc1ccc(-n2nc(Cl)cc2-c2ccc(S(C)(=O)=O)cc2)cc1Cl is ____. 119 to 122 °C

Fill blank: measured melting point of the compound CC(C)c1ccc(-c2c(Cl)c(CN3C(=O)CCC3=O)nc3sc4c(c23)CCN(Cc2ccccc2)C4)cc1 is ____. 201 to 202 °C
